The values you see were collected from patent US7951954B2.

biological target: Adrenergic β2 (Homo sapiens, UniProt P07550); construct: endogenous in cells; host or cells: H292 cells; test: Adrenergic β2 mediated cAMP production in H292 cells (AlphaScreen cAMP detection); assay type: cell-based
Sequence (P07550 whole entry): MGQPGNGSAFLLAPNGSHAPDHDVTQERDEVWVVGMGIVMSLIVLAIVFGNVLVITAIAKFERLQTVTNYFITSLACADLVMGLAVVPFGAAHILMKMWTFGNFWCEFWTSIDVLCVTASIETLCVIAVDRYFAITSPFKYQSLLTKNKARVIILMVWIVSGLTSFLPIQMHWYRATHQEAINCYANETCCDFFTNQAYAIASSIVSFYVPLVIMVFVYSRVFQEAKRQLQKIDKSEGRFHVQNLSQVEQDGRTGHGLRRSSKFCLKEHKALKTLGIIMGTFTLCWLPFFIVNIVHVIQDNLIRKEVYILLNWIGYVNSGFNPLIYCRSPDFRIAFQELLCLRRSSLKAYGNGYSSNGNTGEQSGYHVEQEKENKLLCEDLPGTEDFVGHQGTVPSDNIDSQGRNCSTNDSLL
Structures can show the parent of a compound that is named as a salt.
MEASUREMENT KIND: Intrinsic Activity

COMPOUND: COc1ccccc1CNCCc1cccc(CCNC[C@H](O)c2ccc(O)c3[nH]c(=O)sc23)c1 [Example 45, bis-hydrochloride salt]
VALUE MEASURED: 1.0
--
COMPOUND: O=c1[nH]c2c(O)ccc([C@@H](O)CNCCc3ccc(CNCCc4ccccn4)cc3)c2s1 [Example 22, tris-trifluoroacetate salt]
VALUE MEASURED: 1.0
--
COMPOUND: O=c1[nH]c2c(O)ccc([C@@H](O)CNCCc3cccc(CNCc4ccccc4Cl)c3)c2s1 [Example 3, bis-trifluoroacetate salt]
VALUE MEASURED: 0.9
--
COMPOUND: CC(Cc1cccc(CNCCc2c(Cl)cccc2Cl)c1)NC[C@H](O)c1ccc(O)c2[nH]c(=O)sc12 (stereo partly shown) [Example 15, bis-trifluoroacetate salt]
VALUE MEASURED: 0.8
--
COMPOUND: COc1ccccc1CNCc1cccc(CCNC[C@H](O)c2ccc(O)c3[nH]c(=O)sc23)c1 [Example 36, bis-trifluoroacetate salt]
VALUE MEASURED: 0.8
--
COMPOUND: COCCNCc1cccc(CCNC[C@H](O)c2ccc(O)c3[nH]c(=O)sc23)c1 [Example 13, di-hydrochloride salt]
VALUE MEASURED: 1.0
--
COMPOUND: O=c1[nH]c2c(O)ccc([C@@H](O)CNCCc3cccc(CNCc4ccccn4)c3)c2s1 [Example 61, bis-hydrochloride salt]
VALUE MEASURED: 0.9
